- Test system: TNFα stimulated aromatase activity
- experiment: TNFα-stimulated aromatase activity in cultured breast tissue fibroblasts
- Assay type: cell-based, human
- study.conditions: stromal fibroblasts from normal or malignant breast tissue
attribute.measured: inhibition of TNFα-stimulated aromatase activity (in words)

COc1cc2c(c(OC)c1OC)-c1ccc(OC)c(=O)cc1[C@@H](NC(C)=O)CC2 without effect
C=C1[C@@H](C)[C@H]2[C@H](Cc3ccccc3)NC(=O)[C@]23OC(=O)/C=C/[C@H](O)CCC[C@@H](C)C/C=C/[C@H]3[C@@H]1O without effect

Values compiled from patent US20020055462A1.
